Item-by-item account of pIC50
Target: HPK1 (Homo sapiens)
Sequence (Q92918 1-346 limits assumed): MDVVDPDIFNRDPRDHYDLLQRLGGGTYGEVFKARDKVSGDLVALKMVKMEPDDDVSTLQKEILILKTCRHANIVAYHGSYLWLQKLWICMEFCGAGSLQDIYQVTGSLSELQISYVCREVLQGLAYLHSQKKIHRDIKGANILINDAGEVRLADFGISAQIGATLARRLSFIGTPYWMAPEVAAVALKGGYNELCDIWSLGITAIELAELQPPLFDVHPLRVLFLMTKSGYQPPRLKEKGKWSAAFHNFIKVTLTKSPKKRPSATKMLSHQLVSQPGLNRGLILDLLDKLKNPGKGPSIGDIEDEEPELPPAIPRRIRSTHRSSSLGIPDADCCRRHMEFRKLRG
pIC50: −log10 of the molar value.

>  <smiles-notation>
CCc1c[nH]c2ncc(-c3cccc(N4CCN(C(=O)[C@@H](N)C(C)C)CC4=O)c3)c(Cl)c12

>  <test-system>
HPK1 (Homo sapiens)

>  <pIC50>
7.00 to 8.00

$$$$
>  <smiles-notation>
CCc1c[nH]c2ncc(-c3cc(N4CCNCC4=O)ccc3CO)cc12

>  <test-system>
HPK1 (Homo sapiens)

>  <pIC50>
< 6.00

$$$$
>  <smiles-notation>
CC(C)(C)C#Cc1c[nH]c2ncc(-c3cccc(N4CCNCC4=O)c3)c(Cl)c12

>  <test-system>
HPK1 (Homo sapiens)

>  <pIC50>
6.00 to 7.00

$$$$
>  <smiles-notation>
CCc1c[nH]c2ncc(-c3cccc(N4CCN(C(=O)CNc5ccc(C[C@@H](N)C(=O)O)cc5)CC4=O)c3)c(Cl)c12

>  <test-system>
HPK1 (Homo sapiens)

>  <pIC50>
≥ 8.00

$$$$
>  <smiles-notation>
CCc1c[nH]c2ncc(-c3cccc(N4CCN(S(C)(=O)=O)CC4=O)c3)c(Cl)c12

>  <test-system>
HPK1 (Homo sapiens)

>  <pIC50>
≥ 8.00

$$$$
>  <smiles-notation>
CCc1c[nH]c2ncc(-c3cccc(N4CCNCC4=O)c3)c(Cl)c12

>  <test-system>
HPK1 (Homo sapiens)

>  <pIC50>
≥ 8.00

$$$$
>  <smiles-notation>
CCc1c[nH]c2ncc(-c3cccc(N4CCN(C(=O)CC[C@H](NC(=O)c5ccc(NCc6cnc7nc(N)[nH]c(=O)c7n6)cc5)C(=O)O)CC4=O)c3)c(Cl)c12

>  <test-system>
HPK1 (Homo sapiens)

>  <pIC50>
7.00 to 8.00

$$$$
>  <smiles-notation>
CN(C)CCCS(=O)(=O)N1CCN(c2cccc(-c3cnc4[nH]cc(C5CC5)c4c3Cl)c2)C(=O)C1

>  <test-system>
HPK1 (Homo sapiens)

>  <pIC50>
≥ 8.00

$$$$
>  <smiles-notation>
CCc1c[nH]c2ncc(-c3cccc(N4CCN(C(=O)CNC(=O)[C@@H](N)C(C)C)CC4=O)c3)c(Cl)c12

>  <test-system>
HPK1 (Homo sapiens)

>  <pIC50>
≥ 8.00

$$$$
>  <smiles-notation>
CCc1c[nH]c2ncc(-c3cccc(N4CCN(C(=O)COc5ccc(C[C@@H](N)C(=O)O)cc5)CC4=O)c3)c(Cl)c12

>  <test-system>
HPK1 (Homo sapiens)

>  <pIC50>
≥ 8.00

$$$$
>  <smiles-notation>
O=C1CNCCN1c1cccc(-c2cnc3[nH]cc(C#Cc4ccccn4)c3c2Cl)c1

>  <test-system>
HPK1 (Homo sapiens)

>  <pIC50>
7.00 to 8.00

$$$$
>  <smiles-notation>
O=C1CNCCN1c1cccc(-c2cnc3[nH]cc(C#CC4CC4)c3c2Cl)c1

>  <test-system>
HPK1 (Homo sapiens)

>  <pIC50>
≥ 8.00

$$$$
>  <smiles-notation>
CS(=O)(=O)N1CCN(c2cccc(-c3cnc4[nH]cc(CC(F)F)c4c3Cl)c2)C(=O)C1

>  <test-system>
HPK1 (Homo sapiens)

>  <pIC50>
≥ 8.00

$$$$
>  <smiles-notation>
COCCS(=O)(=O)N1CCN(c2cccc(-c3cnc4[nH]cc(CC(F)F)c4c3Cl)c2)C(=O)C1

>  <test-system>
HPK1 (Homo sapiens)

>  <pIC50>
≥ 8.00

$$$$

These data points were gathered from patent US20240368158A1.
